Would you kindly list PBM binding z-score for each of these sequences?
tested on: RARg homodimer (NR concentration 270 nM); assay: PBM binding z-score (relative to random genomic background probes); higher = stronger binding; sequences stand for … in GC…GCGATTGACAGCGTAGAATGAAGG
Numbers only.

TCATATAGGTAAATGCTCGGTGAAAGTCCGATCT    0.081
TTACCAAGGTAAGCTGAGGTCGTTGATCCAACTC    -0.00347
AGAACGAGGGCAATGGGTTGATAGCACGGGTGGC    1.68
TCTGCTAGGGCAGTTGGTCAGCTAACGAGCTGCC    0.49

Turning now to a further record.
RARg homodimer (NR concentration 270 nM) data for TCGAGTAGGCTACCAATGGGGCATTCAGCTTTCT ; its PBM binding z-score: -0.706

FYI, the data here is from the supplement of paper PMC6555819.
